- System: Rattus norvegicus
- assay.remarks: Inhibition of rat passive cutaneous anaphylaxis following p.o. administration.
- test.conditions: po
The molecules listed here are annotated with their ED50.
reported.property: ED50 (mg/kg)

- N#Cc1ccccc1NC(=O)c1nnn[n-]1.[Na+]: 10
- N#Cc1cc(NC(=O)c2nnn[n-]2)cc(NC(=O)c2nnn[n-]2)c1.[Na+].[Na+]: 1
- COc1cccc(NC(=O)c2nn[nH]n2)c1C(N)=O: 0.2
- CN1CCN(c2cccc(NC(=O)c3nn[nH]n3)c2C(N)=O)CC1: 2.3
- N#Cc1c(NC(=O)c2nnn[n-]2)cccc1N1CCCCC1.[Na+]: 7
- CN(C)c1cccc(NC(=O)c2nnn[n-]2)c1C(N)=O.[Na+]: 34
- O=C(Nc1ccccn1)c1nnn[n-]1.[Na+]: 0.68
- O=C(Nc1cccc(NC(=O)c2nnn[n-]2)n1)c1nnn[n-]1.[Na+].[Na+]: 0.1
